Cited source for all entries: patent US11173162B2

Tested on: FGFR3 enzyme
assayDetails: FGFR Enzymatic Assay (FRET peptide phosphorylation), FGFR3
Assay type: biochemical
testConditions: IC50 ratio showing FGFR3 selectivity; Table 2A, pre-incubated for 4 hours
measuredQuantity: FGFR4/FGFR3

compound | FGFR4/FGFR3
COc1cc(OC)c(F)c(N2Cc3cnc(-c4cnn(CCN5CCOCC5)c4)cc3C3(CC3)C2=O)c1F [Example 157] | >3
CCn1cc(CN2C(=O)N(c3c(F)c(OC)cc(OC)c3F)Cc3cnc(-c4cn(C)nc4C)cc32)cn1 [Example 39] | >10
COc1cc(OC)c(F)c(N2Cc3cnc(-c4cnn(C5CCN(S(C)(=O)=O)C5)c4)cc3C3(CC3)C2=O)c1F (stereo not drawn) [Example 147] | >3

I'm hoping you can list FGFR4/FGFR3 for every compound here, please.
1. COc1cc(OC)c(F)c(N2Cc3cnc(-c4cnn(C5(CC#N)CN(C(C)=O)C5)c4)cc3C3(CC3)C2=O)c1F [Example 56]
2. COc1cc(N2C(=O)N(c3c(F)c(OC)cc(OC)c3F)Cc3cnc(-c4cn(C)nc4C)cc32)ccc1C#N [Example 81]
3. COc1cc(OC)c(F)c(N2Cc3cnc(-c4cn(C)nc4C)cc3N(c3ccc4ccncc4c3)C2=O)c1F [Example 63]
4. COc1cc(OC)c(F)c(N2Cc3cnc(-c4cn(C)nc4C)cc3N(c3ncccn3)C2=O)c1F [Example 105]
5. COc1cc(OC)c(F)c(N2Cc3cnc(-c4cn(C)nc4C)cc3N(c3ccc4[nH]ncc4c3)C2=O)c1F [Example 134]
6. COc1cc(OC)c(F)c(N2Cc3cnc(-c4cn(C)nc4C)cc3N(c3ccc(C(=O)N(C)C)cc3)C2=O)c1F [Example 113]
7. COc1cc(OC)c(F)c(N2Cc3cnc(-c4cnn(CCN5CCC(OC)C5)c4)cc3C3(CC3)C2=O)c1F (stereo not drawn) [Example 161]

Result:
>1
>10
>5
>5
>5
>5
>3

I'm hoping you can list FGFR4/FGFR3 for every compound here, please.
1. COc1cc(OC)c(F)c(N2Cc3cnc(-c4cn(C)nc4C)cc3N(c3ccc(-n4cccn4)cc3)C2=O)c1F [Example 77]
2. COc1ccc(N2C(=O)N(c3c(F)c(OC)cc(OC)c3F)Cc3cnc(-c4cn(C)nc4C)cc32)cc1 [Example 104]
3. COc1cc(OC)c(F)c(N2Cc3cnc(-c4cn(C)nc4C)cc3N(CC3CCOCC3)C2=O)c1F [Example 37]
4. COc1cc(OC)c(F)c(N2Cc3cnc(-c4cnn(C)c4)cc3C3(CC3)C2=O)c1F [Example 186]
5. COc1cc(OC)c(F)c(N2Cc3cnc(-c4cn(C)nc4C)cc3N(Cc3ccncn3)C2=O)c1F [Example 65]

Result:
1: >10; 2: >5; 3: >10; 4: >5; 5: >10

----------
Tested on: FGFR3 enzyme
assayDetails: FGFR Enzymatic Assay (FRET peptide phosphorylation), FGFR3
Type: biochemical
testConditions: IC50 ratio showing FGFR3 selectivity; Table 2A, pre-incubated for 4 hours
Method: The inhibitor potency of the exemplified compounds was measured in an enzyme assay that measures peptide phosphorylation using FRET measurements to detect product formation. Inhibitors were serially diluted in DMSO and a volume of 0.5 μL was transferred to the wells of a 384-well plate. GraphPad prism3 was used to analyze the data.
measuredQuantity: FGFR1/FGFR3

I'm hoping you can list FGFR1/FGFR3 for every compound here, please.
1. COc1cc(OC)c(F)c(N2Cc3cnc(-c4cncc(N)c4)cc3C3(CC3)C2=O)c1F
2. CNC(=O)c1ccc(CN2C(=O)N(c3c(F)c(OC)cc(OC)c3F)Cc3cnc(-c4cn(C)nc4C)cc32)cc1
3. COc1cc(OC)c(F)c(N2Cc3cnc(-c4cnn(CC5CN(S(C)(=O)=O)C5)c4)cc3C3(CC3)C2=O)c1F
4. COc1cc(OC)c(F)c(N2Cc3cnc(-c4cn(C)nc4C)cc3N(c3cccnc3)C2=O)c1F

Result:
[">1", ">10", ">3", ">5"]

----------
Provide the recorded FGFR4/FGFR3 for the entries that follow.
Test system: FGFR3 enzyme
assayDetails: FGFR Enzymatic Assay (FRET peptide phosphorylation), FGFR3
Format: biochemical
testConditions: IC50 ratio showing FGFR3 selectivity; Table 2A, pre-incubated for 4 hours

molecule | FGFR4/FGFR3
CCn1cnc(-c2cc3c(cn2)CN(c2c(F)c(OC)cc(OC)c2F)C(=O)C32CC2)c1 [Example 53] | >5
COc1cnc(N2C(=O)N(c3c(F)c(OC)cc(OC)c3F)Cc3cnc(-c4cn(C)nc4C)cc32)cn1 [Example 112] | >5
CCN1C(=O)N(c2c(F)c(OC)cc(OC)c2F)Cc2cnc(-c3ccc(C(N)=O)nc3)cc21 [Example 184] | >5
COc1cc(OC)c(F)c(N2Cc3cnc(-c4cn(CCC5CCNCC5)nc4C)cc3C3(CC3)C2=O)c1F [Example 165] | >3
CCN1C(=O)N(c2c(F)c(OC)cc(OC)c2F)Cc2cnc(-c3ccc(C(=O)NC(C)C)nc3)cc21 [Example 178] | >5
COc1cc(OC)c(F)c(N2Cc3cnc(-c4cn(C)nc4C)cc3N(c3cnc(C)cn3)C2=O)c1F [Example 107] | >10

Ask: Report FGFR4/FGFR3 for CCc1nnc(CN2C(=O)N(c3c(F)c(OC)cc(OC)c3F)Cc3cnc(-c4cn(C)nc4C)cc32)o1 [Example 67] please.
Result: >10

----------
Provide the recorded FGFR3/FGFR4 for the entries that follow.
targetSystem: UniProt:P22455
Sequence (P22455 22-802): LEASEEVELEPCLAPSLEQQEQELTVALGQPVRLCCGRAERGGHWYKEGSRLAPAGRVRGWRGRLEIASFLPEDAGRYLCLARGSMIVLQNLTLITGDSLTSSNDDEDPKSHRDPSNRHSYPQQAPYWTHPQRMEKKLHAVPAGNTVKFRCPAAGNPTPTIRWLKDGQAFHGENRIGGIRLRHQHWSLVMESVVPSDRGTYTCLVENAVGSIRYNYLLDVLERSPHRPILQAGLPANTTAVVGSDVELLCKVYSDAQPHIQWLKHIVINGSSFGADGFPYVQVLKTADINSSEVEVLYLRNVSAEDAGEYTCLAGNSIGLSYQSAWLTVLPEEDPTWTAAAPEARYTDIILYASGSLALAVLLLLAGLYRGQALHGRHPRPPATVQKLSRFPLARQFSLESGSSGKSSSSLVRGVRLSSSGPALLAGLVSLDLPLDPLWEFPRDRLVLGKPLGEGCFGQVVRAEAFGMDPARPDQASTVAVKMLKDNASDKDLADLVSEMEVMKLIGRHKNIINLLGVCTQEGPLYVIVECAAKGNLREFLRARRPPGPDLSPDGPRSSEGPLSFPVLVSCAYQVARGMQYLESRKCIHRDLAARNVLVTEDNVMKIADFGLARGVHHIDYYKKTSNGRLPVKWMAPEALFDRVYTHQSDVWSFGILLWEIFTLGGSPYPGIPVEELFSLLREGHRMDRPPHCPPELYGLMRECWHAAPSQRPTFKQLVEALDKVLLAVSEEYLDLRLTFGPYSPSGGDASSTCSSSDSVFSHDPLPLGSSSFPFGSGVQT
assayDetails: FGFR Enzymatic Assay (FRET peptide phosphorylation), FGFR4
Format: biochemical
testConditions: IC50 ratio showing FGFR4 selectivity; Table 2, pre-incubated for 4 hours

compound | targetSystem | FGFR3/FGFR4
COc1cc(OC)c(F)c(N2Cc3cnc(-c4[nH]ncc4C#N)cc3C3(CC3)C2=O)c1F [Example 171] | UniProt:P22455 | >10
COc1cc(OC)c(F)c(N2Cc3cnc(-c4cncc(S(=O)(=O)N5CCOCC5)c4)cc3C3(CC3)C2=O)c1F [Example 14] | UniProt:P22455 | >1
COc1cc(OC)c(F)c(N2Cc3cnc(-c4nn(C)cc4C#N)cc3C3(CC3)C2=O)c1F [Example 172] | UniProt:P22455 | >10
COc1cc(OC)c(F)c(N2Cc3cnc(-c4cncc(C#N)c4)cc3C3(CC3)C2=O)c1F [Example 8] | UniProt:P22455 | >10
COc1cc(OC)c(F)c(N2Cc3cnc(-c4nn(CC#N)cc4C#N)cc3C3(CC3)C2=O)c1F [Example 174] | UniProt:P22455 | >25
COc1cc(OC)c(F)c(N2Cc3cnc(-c4cncc(C(=O)N5CCOCC5)c4)cc3C3(CC3)C2=O)c1F [Example 13] | UniProt:P22455 | >10

# evaluate next
Ask: Report FGFR3/FGFR4 for COc1cc(OC)c(F)c(N2Cc3cnc(-c4cc(N)c(F)cc4C)cc3C3(CC3)C2=O)c1F [Example 2] please.
Result: >10

----------
Test system: FGFR3 enzyme
assayDetails: FGFR Enzymatic Assay (FRET peptide phosphorylation), FGFR3
Type: biochemical
testConditions: IC50 ratio showing FGFR3 selectivity; Table 2A, pre-incubated for 4 hours
Protocol: The inhibitor potency of the exemplified compounds was measured in an enzyme assay that measures peptide phosphorylation using FRET measurements to detect product formation. Inhibitors were serially diluted in DMSO and a volume of 0.5 μL was transferred to the wells of a 384-well plate. GraphPad prism3 was used to analyze the data.
measuredQuantity: FGFR4/FGFR3

molecule | FGFR4/FGFR3
COc1cc(OC)c(F)c(N2Cc3cnc(-c4cn(CC#N)nc4C)cc3C3(CC3)C2=O)c1F [Example 153] | >3
COc1cc(OC)c(F)c(N2Cc3cnc(-c4cn(C)nc4C)cc3N(c3ccc(S(C)(=O)=O)cc3)C2=O)c1F [Example 98] | >10
CCc1cnc(N2C(=O)N(c3c(F)c(OC)cc(OC)c3F)Cc3cnc(-c4cn(C)nc4C)cc32)cn1 [Example 106] | >5

# evaluate next
Ask: Under FGFR3 enzyme: FGFR4/FGFR3 value of CCN1C(=O)N(c2c(F)c(OC)cc(OC)c2F)Cc2cnc(-c3ccc(C4(C#N)CCC4)cc3)cc21 [Example 181] ?
Result: >10

----------
Provide the recorded FGFR4/FGFR3 for the entries that follow.
Test system: FGFR3 enzyme
assayDetails: FGFR Enzymatic Assay (FRET peptide phosphorylation), FGFR3
Assay type: biochemical
testConditions: IC50 ratio showing FGFR3 selectivity; Table 2A, pre-incubated for 4 hours

Examples with their reported FGFR4/FGFR3 follow.
compound | targetSystem | FGFR4/FGFR3
COc1cc(OC)c(F)c(N2Cc3cnc(-c4cn(C)nc4C)cc3N(Cc3cncnc3)C2=O)c1F | FGFR3 enzyme | >5
COc1cc(OC)c(F)c(N2Cc3cnc(-c4cn(C5CCN(CC#N)C5)nc4C)cc3C3(CC3)C2=O)c1F (stereo not shown) | FGFR3 enzyme | >3
COc1ccc(CN2C(=O)N(c3c(F)c(OC)cc(OC)c3F)Cc3cnc(-c4cn(C)nc4C)cc32)cn1 | FGFR3 enzyme | >10
COc1cc(OC)c(F)c(N2Cc3cnc(-c4cn(C)nc4C)cc3N(c3ccnnc3)C2=O)c1F | FGFR3 enzyme | >10
COc1cc(OC)c(F)c(N2Cc3cnc(-c4cn(C)nc4C)cc3N(C(C)C)C2=O)c1F | FGFR3 enzyme | >5

I'm hoping you can list FGFR4/FGFR3 for every compound here, please.
1. COc1cc(OC)c(F)c(N2Cc3cnc(-c4cn(C)nc4C)cc3N(C3CCCC3)C2=O)c1F
2. COc1cc(OC)c(F)c(N2Cc3cnc(-c4cn(C)nc4C)cc3N(c3ccc(F)c(C#N)c3)C2=O)c1F

Result:
>5
>5
